Test system: OVCAR-8 ovarian
assay details: NCI-60 one-dose screen, 48 h (100 = growth as untreated, 0 = no growth, -100 = all killed)
condition set: 10 µM unless noted
The panel holds about 83,000 compounds, 20% with a hit somewhere; the sample as a whole holds those more often. Calls of active or inactive are those of the source. Rule for the calls: active = growth percent below 10; inactive = the rest.
Field: growth. Provide a value for each of the compounds that follow.

So what does the record say about growth for `CCCCCCCCN(CCCCCCCC)CCCCCCNc1cc(OC)cc2cccnc12` ?
73.3% (inactive)

# input compound: `Fc1ccc(Nc2nc(NCCNc3ccnc4cc(Cl)ccc34)nc(N3CCOCC3)n2)cc1` ; wanted: its growth
74.7% (inactive)

Field request: growth | item: `OCc1ncc(-c2ccccc2)s1`
107% (inactive)

Param item = `CC(C)c1ccc2occ(C=C3C(=O)NC(=O)NC3=O)c(=O)c2c1` ; retrieve measured growth.
80.1% (inactive)

Quick one: growth of C=C1CC2(OC1=O)C(=O)N(CCCN1C(=O)C3(CC(=C)C(=O)O3)c3ccccc31)c1ccccc12 (stereo not given) ?
11.6% (inactive)

Endpoint output: growth of `C=CCn1c2ccccc2c2c3c(c4c5ccccc5n(CC=C)c4c21)C(=O)N(O)C3=O` . Value?
22.9% (inactive)

Would you kindly share the measured growth for `O=C1NN(C(=O)c2ccc(Cl)cc2)C(c2ccccc2)=N/C1=C\c1cn(-c2ccccc2)nc1-c1ccccc1` ?
94.1% (inactive)

Give its growth value. Item: `CC(=O)c1cc2c(N)c(C(=O)Nc3cccc4c3OCCO4)sc2nc1C`
106% (inactive)

Reported growth, compound CC1CN(c2oc(-c3ccccc3)nc2C#N)CC(C)O1 (stereo not given) : ____
102% (inactive)

Name the recorded growth for `Cc1cc(N/N=C/c2nc(-c3ccccc3)oc2C)c2cc(Cl)ccc2n1` .
-41.7% (active)
